B1: PhoQ; a variant is named by its letters at X, in order, P23837 (parent)
chain: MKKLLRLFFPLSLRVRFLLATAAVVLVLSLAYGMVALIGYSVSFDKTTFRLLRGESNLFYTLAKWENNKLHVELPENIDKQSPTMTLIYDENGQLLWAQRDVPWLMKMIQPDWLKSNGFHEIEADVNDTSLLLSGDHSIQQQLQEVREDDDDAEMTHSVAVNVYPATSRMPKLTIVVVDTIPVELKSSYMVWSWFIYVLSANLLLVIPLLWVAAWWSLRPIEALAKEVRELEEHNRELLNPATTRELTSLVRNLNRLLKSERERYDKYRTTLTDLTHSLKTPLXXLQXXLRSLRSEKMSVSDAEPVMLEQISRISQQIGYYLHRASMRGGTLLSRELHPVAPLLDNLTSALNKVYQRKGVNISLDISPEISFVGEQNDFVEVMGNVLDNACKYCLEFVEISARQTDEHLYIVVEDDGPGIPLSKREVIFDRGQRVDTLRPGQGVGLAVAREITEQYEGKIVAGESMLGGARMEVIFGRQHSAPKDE

variants of: B1; experiment: enrichment ratio after two sorts for PhoP signalling (ratio (wild type AVST 3.29)); higher = more functional; conditions: with PhoP (E. coli)
Over roughly 140,000 sequences, “enrichment ratio after two sorts for PhoP signalling” has its median near 0; the highest 2% begin near 11. The entries come from a sample that favours the highest values as a whole.
Please respond with reported enrichment ratio for every item in the list.
Give bare numbers.

For orientation, consider the following solved cases.
{"columns": ["change", "enrichment ratio"],
 "data": [
  ["QGLC", 15.9],
  ["TKMF", 11.5],
  ["FSLC", 12.4]
]}

Batch lookup, enrichment ratio per entry.
1. GLCL
2. KLER
3. MSLC
4. TQAT

1. 13.5
2. 0.976
3. 11.7
4. 12.7
